Data credit: ChEMBL document CHEMBL3039007

propertyLabel: Ki (µM)
Numeric only. Scale: µM

Field Ki (system: Solute carrier organic anion transporter family member 1B1 (Homo sapiens)) for entry CC(=O)O[C@H]1CC[C@]2(C)C(C[C@@H](OC(C)=O)[C@]3(C)C4=CC(=O)O[C@H](c5ccoc5)[C@@]4(C)CCC23)C1(C)C (stereo partly drawn) [3-DEOXO-3beta-ACETOXYDEOXYDIHYDROGEDUNIN] = 0.41

Result for `Cc1cc2c(C(C)C)c(O)c(O)c(C=O)c2c(O)c1-c1c(C)cc2c(C(C)C)c(O)c(O)c(C=O)c2c1O` , tested on Solute carrier organic anion transporter family member 1B1 (Homo sapiens), Ki: 1.78

Log: Solute carrier organic anion transporter family member 1B1 (Homo sapiens), compound CCCCCN(CCCCC)C(=O)C(CCC(=O)[O-])NC(=O)c1ccc(Cl)c(Cl)c1.[Na+] (stereo not drawn) [LORGLUMIDE SODIUM] , Ki = 2.01
